Molecular target: GLP-1R (Homo sapiens, UniProt P43220)
Sequence (P43220 24-463): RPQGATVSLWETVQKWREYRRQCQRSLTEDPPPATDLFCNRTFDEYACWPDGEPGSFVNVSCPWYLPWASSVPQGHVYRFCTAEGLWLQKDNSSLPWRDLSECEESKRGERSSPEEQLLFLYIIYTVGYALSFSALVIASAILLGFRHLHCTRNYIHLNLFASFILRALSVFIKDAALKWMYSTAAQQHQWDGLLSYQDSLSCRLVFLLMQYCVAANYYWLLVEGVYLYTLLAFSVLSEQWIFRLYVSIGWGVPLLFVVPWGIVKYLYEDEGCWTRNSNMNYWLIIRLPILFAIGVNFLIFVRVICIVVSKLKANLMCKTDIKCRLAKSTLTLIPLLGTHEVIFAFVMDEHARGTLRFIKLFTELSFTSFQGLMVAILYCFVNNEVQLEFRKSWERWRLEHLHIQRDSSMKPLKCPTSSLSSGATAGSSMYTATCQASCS
Sequence (P01275 100-127 partner limits assumed): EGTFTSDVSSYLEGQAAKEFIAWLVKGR
Assay: EC20 GLP-1(9-36) PAM cAMP Assay: dose response of compound in the presence of fixed concentration of GLP-1(9-36)
Settings: GLP-1R CRE-bla CHO-K1 cells, in presence of fixed concentration of GLP-1(9-36), 30 min at 37° C.
Source text: EC20 GLP-1(9-36) PAM cAMP Assay: Dose Response of Compound in the Presence of Fixed Concentration of GLP-1 (9-36). […]
MEASURED_PROPERTY: EC50

Illustrative cases are given below, each with its answer.
**Query** // EC50 lookup, key: COCC1CCC(C2CC=C(c3cnc(-c4ccc(CC(NC(=O)c5ccc(C(C)(C)C)s5)C(=O)N5CC(C(=O)O)C5)cc4)nc3)CC2)CC1 (centres unmarked)
**Result** < 0.5 µM

**Query** // EC50 lookup, key: C[C@@H](NC(=O)[C@H](Cc1ccc(-c2ncc(C3=CCC(NC(=O)OC(C)(C)C)CC3)cn2)cc1)NC(=O)c1ccc(C(C)(C)C)s1)C(=O)O (some centres unmarked)
**Result** 2.5 to 5 µM

**Query** // EC50 lookup, key: CCCC1CCC(C2CC=C(c3cnc(-c4ccc(C[C@H](NC(=O)c5ccc(C(C)(C)C)s5)C(=O)O)cc4)nc3)CC2)CC1 (some centres unmarked)
**Result** 0.5 to 2.5 µM

More entries:
**Query** // EC50 lookup, key: CC[C@H]1CC[C@H](C2CC=C(c3cnc(-c4ccc(C[C@H](NC(=O)c5ccc(C(C)C)s5)C(=O)N5CC(C(=O)O)C5)cc4)nc3)CC2)CC1 (some centres unmarked)
**Result** < 0.5 µM

**Query** // EC50 lookup, key: CCC1CCC(C2CC=C(c3cnc(-c4ccc(C[C@H](NC(=O)c5ccc(C(C)(C)C)s5)C(=O)N[C@H](C)C(=O)O)cc4)nc3)CC2)CC1 (some centres unmarked)
**Result** < 0.5 µM

**Query** // EC50 lookup, key: CC1CC=C(c2cnc(-c3ccc(C[C@H](NC(=O)c4ccc(C(C)(C)C)s4)C(=O)N[C@H](C)C(=O)O)cc3)nc2)CC1 (some centres unmarked)
**Result** 2.5 to 5 µM

**Query** // EC50 lookup, key: CC[C@H]1CC[C@H](C2CC=C(c3cnc(-c4ccc(C[C@H](NC(=O)c5ccc(C(C)(C)C)s5)C(=O)N5CC[C@H](C(=O)O)C5)cc4)nc3)CC2)CC1 (some centres unmarked)
**Result** < 0.5 µM

**Query** // EC50 lookup, key: CCCC1CCC(C2CC=C(c3cnc(-c4ccc(C[C@H](NC(=O)c5ccc(C(C)(C)C)s5)C(=O)N[C@H](C)C(=O)O)cc4)nc3)CC2)CC1 (some centres unmarked)
**Result** < 0.5 µM
